- ASSAYED SYSTEM: T1, EsCas13d, nuclease-dead (Eubacterium siraeum, UniProt B0MS50, R295A;H300A;R849A;H854A)
- T1 sequence: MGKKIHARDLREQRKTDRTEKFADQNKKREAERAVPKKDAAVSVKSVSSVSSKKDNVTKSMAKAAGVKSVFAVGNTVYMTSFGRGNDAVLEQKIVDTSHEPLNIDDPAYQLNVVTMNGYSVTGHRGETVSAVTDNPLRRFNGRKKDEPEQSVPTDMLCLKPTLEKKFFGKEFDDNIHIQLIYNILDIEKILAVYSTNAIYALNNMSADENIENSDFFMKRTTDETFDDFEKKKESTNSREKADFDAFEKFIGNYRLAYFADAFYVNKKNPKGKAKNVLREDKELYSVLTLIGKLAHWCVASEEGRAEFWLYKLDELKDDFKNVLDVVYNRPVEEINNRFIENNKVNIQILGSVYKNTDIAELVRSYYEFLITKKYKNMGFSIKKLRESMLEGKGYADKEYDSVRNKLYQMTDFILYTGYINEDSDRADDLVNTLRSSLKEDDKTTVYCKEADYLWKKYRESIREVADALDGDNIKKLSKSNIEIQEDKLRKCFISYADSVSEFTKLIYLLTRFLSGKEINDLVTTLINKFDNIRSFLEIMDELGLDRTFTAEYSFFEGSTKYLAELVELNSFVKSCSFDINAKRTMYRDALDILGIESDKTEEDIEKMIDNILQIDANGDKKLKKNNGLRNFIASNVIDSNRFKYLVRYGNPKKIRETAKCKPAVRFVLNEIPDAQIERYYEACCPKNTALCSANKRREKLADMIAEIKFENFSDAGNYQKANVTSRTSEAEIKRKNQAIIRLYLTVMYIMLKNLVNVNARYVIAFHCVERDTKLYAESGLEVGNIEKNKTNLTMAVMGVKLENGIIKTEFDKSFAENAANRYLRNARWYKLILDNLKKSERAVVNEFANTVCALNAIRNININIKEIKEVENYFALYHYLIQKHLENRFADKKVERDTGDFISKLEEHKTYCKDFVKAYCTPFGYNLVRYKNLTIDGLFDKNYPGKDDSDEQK
- EXPERIMENT: crRNA (strand 1, pre-loaded); Mg2+; 40 mM Tris-HCl pH 7.5, 150 mM NaCl, 6 mM MgCl2, 1 mM DTT, 0.1% Tween-20, 0.2 mg/ml BSA; 25 C; 10 min per concentration, then washed
- MEASUREMENT CONDITIONS: tags: His6-TwinStrep-SUMO cleaved; N-terminal SNAP kept (SNAP-Surface 488); label: 3' end held by stalled T7 RNA polymerase
METRIC: Kd (nM)
Number in nM, nothing else.

State the recorded Kd for this entry: target 1 insA 3' of 15,insG 3' of 7 (mixed) RNA 1: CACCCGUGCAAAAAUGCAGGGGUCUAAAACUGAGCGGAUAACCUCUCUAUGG RNA 2: GGGAAUGGAUCCACAUCUACGAAUUCGUACCAUAGAGAAGGUUAUCGCGCUCACCGAGAUCGGAAGAGCACACGU
6.15

State the recorded Kd for this entry: target 1 C6U,C22U (mixed) RNA 1: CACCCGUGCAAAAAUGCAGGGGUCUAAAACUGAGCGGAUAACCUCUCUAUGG RNA 2: GGGAAUGGAUCCACAUCUACGAAUUCGUAUCAUAGAGAGGUUAUCUGCUCACCGAGAUCGGAAGAGCACACGU
14.8

State the recorded Kd for this entry: target 2 MT 5'PFS UAC 3'PFS AGC (mixed) RNA 1: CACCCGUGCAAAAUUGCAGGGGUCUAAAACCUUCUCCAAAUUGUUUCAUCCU RNA 2: GGGAAUGGAUCCACAUCUACGAAUUCUACAGGAUGAAACAAUUUGGAGAAGAGCAGAUCGGAAGAGCACACGU
4.2
